biological target: AgFus1; assay: SPOT peptide array binding signal intensity (averaged, normalized) (arbitrary units (background-subtracted, floor 0; scale differs between SH3 domains)); higher = stronger binding of the SH3 domain to the peptide
Property label: SPOT peptide array binding signal intensity
Lab note: record the figure alone, no unit after it.

query: Please report the recorded SPOT peptide array binding signal intensity for `GRSRLFPHSPLGRSS` .
result: 454

query: Entry `LKVTPGRRAPTISKI` has what SPOT peptide array binding signal intensity?
result: 22

query: What value of SPOT peptide array binding signal intensity has been reported for the following binder? `YVRRRPRVRLEPLLS`
result: 928

query: Endpoint output: SPOT peptide array binding signal intensity of `QLLNPNRRAPRRPLS` . Value?
result: 158

query: Recorded SPOT peptide array binding signal intensity for `HVRRSILALPLGVLL` , please?
result: 605

query: What value of measured SPOT peptide array binding signal intensity is listed for `RSLRKRPTSPSISGS` ?
result: 464

query: State the recorded SPOT peptide array binding signal intensity for this entry: `NNNKMRPHLPPLSSG`
result: 386

query: Record request: SPOT peptide array binding signal intensity value, item `GERSRPLVISILSSA`
result: 1940

query: What does the record list as SPOT peptide array binding signal intensity for `VTHRLRISIPGITGR` ?
result: 1200

query: Returns the measured SPOT peptide array binding signal intensity for the input binder. Input: `NLDRSKISLPDFDDE`
result: 42
